measurement target: Neuronal acetylcholine receptor subunit alpha-7 (Rattus norvegicus)
Sequence (Q05941 whole entry): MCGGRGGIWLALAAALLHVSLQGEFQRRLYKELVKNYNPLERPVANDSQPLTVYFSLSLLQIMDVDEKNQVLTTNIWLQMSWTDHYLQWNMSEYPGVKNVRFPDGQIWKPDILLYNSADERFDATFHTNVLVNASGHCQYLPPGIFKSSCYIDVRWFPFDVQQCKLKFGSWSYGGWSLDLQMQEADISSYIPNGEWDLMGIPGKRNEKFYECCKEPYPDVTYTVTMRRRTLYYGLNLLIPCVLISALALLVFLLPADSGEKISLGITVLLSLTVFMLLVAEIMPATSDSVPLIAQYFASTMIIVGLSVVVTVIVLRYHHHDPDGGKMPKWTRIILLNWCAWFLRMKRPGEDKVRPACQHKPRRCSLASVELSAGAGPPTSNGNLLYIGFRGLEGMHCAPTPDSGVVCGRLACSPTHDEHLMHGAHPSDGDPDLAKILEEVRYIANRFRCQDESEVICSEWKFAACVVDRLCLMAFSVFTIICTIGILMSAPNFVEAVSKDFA
assay info: Binding affinity of Norditerpenoid Alkaloids at rat neuronal alpha7-type nicotinic acetylcholine receptor

compound: CCN1C[C@]2(COC)CC[C@H](O)[C@@]34C5C[C@@H]6[C@@H](OC)C[C@](O)(C(CC23)C14)C5[C@H]6OC(C)=O (some centres undefined) [CONDELPHINE]
IC50: 1.6 µM
--
compound: CCN1C[C@]2(C)CC[C@H](OC)[C@@]34C1[C@]1(OCO[C@@]15C[C@H](OC)[C@H]1C[C@]3(O)[C@@H]5[C@H]1OC)[C@@H](OC(C)=O)[C@H]24 [DELTALINE]
IC50: 110 µM
--
compound: CCN1C[C@]2(COC(=O)c3ccccc3N3C(=O)C[C@H](C)C3=O)CC[C@H](OC)[C@@]34C1[C@@]1(OCO[C@@]15C[C@H](OC)[C@H]1C[C@@H]3[C@@H]5[C@H]1OC)[C@@H](OC)[C@H]24 [ELATINE]
IC50: 0.0061 µM
--
compound: CCN1C[C@]2(COC)CC[C@H](O)[C@]34C1[C@@](O)([C@@H](OC)[C@H]23)[C@@]1(O)C[C@H](OC)[C@H]2C[C@@H]4[C@@H]1[C@H]2OC [DELSOLINE]
IC50: 19 µM
--
compound: CCN1C[C@]2(OC(=O)c3ccccc3N)CC[C@H](OC)[C@]34C1[C@@H](CC23)[C@@]1(O)C[C@H](OC)[C@H]2CC4[C@]1(O)[C@H]2OC (some centres undefined)
IC50: 6.8 µM
--
compound: CCN1C[C@]2(COC(=O)c3ccccc3N3C(=O)C[C@H](C)C3=O)CC[C@H](OC)[C@]34C5C[C@@H]6[C@@H](OC)C[C@@](O)(C5[C@H]6OC(C)=O)[C@](O)(C13)[C@@H](OC)C24 (some centres undefined) [NUDICAULINE]
IC50: 0.0017 µM
--
compound: CCN1C[C@]2(COC)CC[C@H](OC)[C@]34C5C[C@@H]6[C@@H](OC)C[C@@]7(OCO[C@@]7(C13)[C@@H](O)C24)C5[C@H]6OC (some centres undefined) [DELCORINE]
IC50: 53 µM
--
compound: CCN1C[C@]2(CO)CC[C@H](OC)[C@@]34[C@@H]5C[C@H]6[C@H](OC)[C@@H]5[C@](O)(C[C@@H]6OC)[C@](O)([C@@H](OC)[C@H]23)[C@@H]14 [LYCOCTONINE]
IC50: 10 µM
--
compound: CCN1C[C@]2(OC(=O)c3ccccc3NC(C)=O)CC[C@H](OC)[C@@]34[C@@H]2C[C@@H]([C@@H]13)[C@@]1(O)C[C@H](OC)[C@H]2C[C@@H]4[C@]1(O)[C@H]2OC
IC50: 96 µM
